Test system: OVCAR-3 ovarian
Experiment: NCI-60 one-dose screen, 48 h (100 = growth as untreated, 0 = no growth, -100 = all killed)
Conditions: 10 µM unless noted
About 83,000 compounds went through this panel and 20% of them were active in at least one assay; those are over-represented in the sample as a whole.
Would you kindly list growth for each of these compounds?
Answers are plain numbers, in %.

Worked cases, answers included:
1. CN1CCN(c2ccc(-c3cc4c(Nc5ccc(F)c(Cl)c5)ncnn4c3)cc2)CC1: 77
2. CN1C(=O)CNC(=O)[C@H](NC(=O)c2nc3ccccc3cc2O)CSSC[C@H]1C(=O)NCCCc1nc2ccccc2cc1O: 9.86
3. CN(C)CCNc1nc2ccccc2c2c(=O)c3cc(F)ccc3sc12: 38.1
4. CCC(C)(c1cc(C(C)(C)C)c(O)c(C(C)(C)C)c1)c1cc(C(C)(C)C)c(O)c(C(C)(C)C)c1: 109
5. O=C1NC(=O)C(c2ccccc2)(c2ccccc2)N1Cc1cn(-c2c3ccccc3nc3ccccc23)nn1: 87

Could I get growth for every one of these entries?
1. COc1ccc(-c2csc(NC(=O)N3CCN(c4cc5c(cc4F)c(=O)c(C(=O)O)cn5C4CC4)CC3)n2)cc1
2. CCN(CC)c1ccc(C2=NN(C(C)=O)C(c3cc(OC)c(OC)c(OC)c3)C2)cc1 (stereo not given)
3. CN1CCN(c2ccc(-c3cc4c(Nc5ccc(F)c(Cl)c5)ncnn4c3)cn2)CC1
4. CNCCCNc1nc2ccccc2c2c(=O)c3cc(F)ccc3sc12
5. COc1cc(C)c(Cc2cnc(N)nc2N)cc1OC
6. CC1Cc2ccccc2N1NC(=O)c1ccc(Cl)c(S(N)(=O)=O)c1 (stereo not given)
7. CN1C(=C2C(=O)OC(C)(C)OC2=O)CCC1C(=O)NCc1ccc(Cl)cc1Cl (stereo not given)

[-3.32, -64.8, 98.6, -1, 114, 119, 101]
